# credit: patent US8785445B2

Below is a list of entries, each paired with its recorded log10(EC50) value.
- target or test system: human DP2 (Homo sapiens, UniProt Q9Y5Y4)
- Construct: expressed in transfected cells; membranes prepared
- Sequence (Q9Y5Y4 1-395): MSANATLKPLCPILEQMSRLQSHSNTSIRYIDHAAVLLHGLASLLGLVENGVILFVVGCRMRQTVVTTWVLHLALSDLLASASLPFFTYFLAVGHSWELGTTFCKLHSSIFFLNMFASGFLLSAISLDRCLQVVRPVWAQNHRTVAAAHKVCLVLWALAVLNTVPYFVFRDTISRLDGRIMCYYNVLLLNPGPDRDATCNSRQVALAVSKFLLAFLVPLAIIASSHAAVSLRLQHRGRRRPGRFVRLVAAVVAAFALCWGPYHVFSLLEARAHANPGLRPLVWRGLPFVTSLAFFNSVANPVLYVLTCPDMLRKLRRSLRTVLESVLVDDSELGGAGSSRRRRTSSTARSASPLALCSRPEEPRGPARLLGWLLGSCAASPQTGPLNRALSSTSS
- experiment summary: DP-2 binding inhibition assay (3H-PGD2, membranes of DP2-expressing K562 cells)
- assay context: 4% HSA, read-out: EC50 (nM) 4% HSA
Response schema: value (number) is log10 of EC50 in units of nM.

Some compounds with recorded log10(EC50):
INSERT INTO measurements (compound, attribute_measured, assay_value) VALUES
  ('O=C(Nc1cccc(-c2ccc(F)cc2)n1)c1ccc(Oc2cc3c(cc2Cl)C(C(=O)O)CCO3)cc1 (stereo not shown) [Example 109]', 'log10(EC50)', 2.11),
  ('COc1cc(Cl)ccc1-c1cccc(NC(=O)c2ccc(Oc3cc4c(cc3Cl)C(C(=O)O)CCO4)cc2)n1 (stereo not shown) [Example 104]', 'log10(EC50)', 2.06),
  ('COc1ccc(-c2cccc(NC(=O)c3ccc(Oc4cc5c(cc4Cl)C(C(=O)O)CCO5)cc3)n2)cc1 (stereo not shown) [Example 58]', 'log10(EC50)', 1.83),
  ('O=C(Nc1ccn(Cc2ccc(Cl)cc2)n1)c1ccc(Oc2cc3c(cc2Cl)C(C(=O)O)CCO3)cc1 (stereo not shown) [Example 179]', 'log10(EC50)', 2.39),
  ('N#Cc1cc2c(cc1Oc1ccc(C(=O)Nc3nnc(-c4ccccc4)s3)cc1)OCCC2C(=O)O (stereo not shown) [Example 146]', 'log10(EC50)', 2.86);

Kindly note the recorded log10(EC50) for O=C(Nc1ccn(-c2ccc(Cl)c(Cl)c2)n1)c1ccc(Oc2cc3c(cc2Cl)C(C(=O)O)CCO3)cc1 (stereo not shown) [Example 173] , which is 1.36

Looking up O=C(Nc1ccc2cc(Cl)ccc2n1)c1ccc(Oc2cc3c(cc2Cl)[C@H](C(=O)O)CCO3)cc1 (single isomer, unassigned; enantiomer 1) [Example 36] , I see its log10(EC50) listed as 1.92

log10(EC50) recorded for this compound, O=C(Nc1ccc(F)c(-c2ccc(Cl)cc2)n1)c1ccc(Oc2cc3c(cc2Cl)C(C(=O)O)CCO3)cc1 (stereo not shown) [Example 44] , is 3.70

In plain terms, COc1ccc(-c2ccc(NC(=O)c3ccc(Oc4cc5c(cc4Cl)C(C(=O)O)CCO5)cc3)nn2)cc1 (stereo not shown) [Example 63] has a documented log10(EC50) of 3.16

Measured log10(EC50), CC(C)(C)c1csc(NC(=O)c2ccc(Oc3cc4c(cc3Cl)C(C(=O)O)CCO4)cc2)n1 (stereo not shown) [Example 150] : 1.51
